Measured values drawn from ChEMBL document CHEMBL1145459 for this set.

protocol-details: Half life in monkey at 1 mg/kg, iv
Type: ADME, organism-based, Macaca mulatta
Design: dose 1 mg/kg, route intravenous
particulars: rhesus monkey, in vivo
endpoint-name: half-life (h)
Answers are plain numbers, in h.

For the compound CC(=O)Nc1nc2c(Oc3cc(-c4ccc(C(F)(F)F)cc4)ncn3)cccc2s1 , give its measured half-life value. 62

* * *

protocol-details: Metabolic stability in rat liver microsomes assessed as clearance
Format: ADME, Microsome
Record form. Attribute: microsomal CLint. Fill in for each entry.

Field: microsomal CLint. Fill in for each record below.
1. CC(=O)Nc1nc2c(Oc3cc(-c4ccc(C(F)(F)F)cc4)ncn3)cccc2s1
2. Nc1cnc2cccc(Oc3cc(-c4ccc(C(F)(F)F)cc4)ncn3)c2n1

1: 50 µL/min/mg; 2: 15 µL/min/mg

Field: microsomal CLint. Fill in for each record below.
1. Nc1nc2c(Oc3cc(-c4ccc(C(F)(F)F)cc4)ncn3)cccc2s1
2. Nc1nc2c(Oc3cc(-c4ccc(C(F)(F)F)cc4)ncn3)cccc2[nH]c1=O

1. 47 µL/min/mg
2. < 14 µL/min/mg

* * *

protocol-details: Volume of distribution at steady state in monkey at 1 mg/kg, iv
Assay type: ADME, organism-based, Macaca mulatta
Set-up: dose 1 mg/kg, route intravenous
particulars: rhesus monkey, in vivo, read-out: Vss
endpoint-name: Vd (L/kg)
Give bare numbers, in L/kg.

For the molecule CC(=O)Nc1nc2c(Oc3cc(-c4ccc(C(F)(F)F)cc4)ncn3)cccc2s1 , give its measured Vd value. 2.3

* * *

subject-of-test: Transient receptor potential cation channel subfamily V member 1 (Rattus norvegicus)
Sequence (O35433 whole entry): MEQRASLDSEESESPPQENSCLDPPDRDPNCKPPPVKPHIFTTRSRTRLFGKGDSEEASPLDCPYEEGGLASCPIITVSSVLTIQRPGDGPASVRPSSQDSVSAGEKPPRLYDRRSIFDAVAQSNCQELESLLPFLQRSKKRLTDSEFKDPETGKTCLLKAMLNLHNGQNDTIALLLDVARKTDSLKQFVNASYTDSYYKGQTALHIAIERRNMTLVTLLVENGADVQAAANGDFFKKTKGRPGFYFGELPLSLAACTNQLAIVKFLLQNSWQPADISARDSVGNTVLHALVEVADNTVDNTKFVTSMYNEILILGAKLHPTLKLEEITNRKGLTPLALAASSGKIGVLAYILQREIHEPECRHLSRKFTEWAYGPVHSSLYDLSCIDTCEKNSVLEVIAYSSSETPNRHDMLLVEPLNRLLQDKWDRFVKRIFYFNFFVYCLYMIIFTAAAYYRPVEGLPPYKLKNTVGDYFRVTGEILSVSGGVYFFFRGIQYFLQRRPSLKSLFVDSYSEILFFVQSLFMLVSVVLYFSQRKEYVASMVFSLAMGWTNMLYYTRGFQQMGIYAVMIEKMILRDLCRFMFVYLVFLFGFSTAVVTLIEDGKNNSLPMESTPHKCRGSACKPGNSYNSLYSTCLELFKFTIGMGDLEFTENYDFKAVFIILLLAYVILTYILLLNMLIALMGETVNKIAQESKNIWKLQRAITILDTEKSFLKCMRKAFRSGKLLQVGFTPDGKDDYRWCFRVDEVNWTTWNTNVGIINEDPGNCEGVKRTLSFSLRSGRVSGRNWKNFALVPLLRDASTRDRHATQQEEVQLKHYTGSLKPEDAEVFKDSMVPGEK
protocol-details: Antagonist activity at rat TRPV1 expressed in CHO cells assessed as inhibition of acid-induced calcium influx
Format: functional, cell-based
endpoint-name: IC50

Below: 6 compounds and their reported IC50.
FC(F)(F)c1ccc(-c2cc(Oc3ccc4ccccc4n3)ncn2)cc1 : > 4000 nM
O=c1ccc2cccc(Oc3cc(-c4ccc(C(F)(F)F)cc4)ncn3)c2[nH]1 : > 4000 nM
FC(F)(F)c1ccc(-c2cc(Oc3ccnc4ccccc34)ncn2)cc1 : > 4000 nM
CCC(=O)Nc1nc2c(Oc3cc(-c4ccc(C(F)(F)F)cc4)ncn3)cccc2s1 : 1500 nM
CC(=O)N(C)c1nc2c(Oc3cc(-c4ccc(C(F)(F)F)cc4)ncn3)cccc2s1 : 860 nM
FC(F)(F)c1ccc(-c2cc(Oc3ccc4ccncc4c3)ncn2)cc1 : > 4000 nM

Field: IC50. Fill in for each record below.
1. Nc1nc2c(Oc3cc(-c4ccc(C(F)(F)F)cc4)ncn3)cccc2s1
2. Nc1cnc2cccc(Oc3cc(-c4ccc(C(F)(F)F)cc4)ncn3)c2n1

["> 4000 nM", "16 nM"]

* * *

protocol-details: Volume of distribution at steady state in dog at 1 mg/kg, iv
Type: ADME, organism-based, Canis lupus familiaris
Design: dose 1 mg/kg, route intravenous
particulars: in vivo, read-out: Vss
endpoint-name: Vd (L/kg)
Give bare numbers, in L/kg.

For the compound CC(=O)Nc1nc2c(Oc3cc(-c4ccc(C(F)(F)F)cc4)ncn3)cccc2s1 , give its measured Vd value. 7

* * *

protocol-details: AUC (0-infinity) in Sprague-Dawley rat at 1 mg/kg, iv
Assay type: ADME, organism-based
Parameters: time infinity, dose 1 mg/kg, route intravenous
particulars: plasma
Record form. Attribute: AUC(0-inf). Fill in for each entry.
Give bare numbers, in ng·h/mL.

CC(=O)Nc1nc2c(Oc3cc(-c4ccc(C(F)(F)F)cc4)ncn3)cccc2s1 [AMG-517] : 5400

For the molecule Nc1nc2c(Oc3cc(-c4ccc(C(F)(F)F)cc4)ncn3)cccc2[nH]c1=O , give its measured AUC(0-inf) value. 5140

* * *

protocol-details: Clearance in Sprague-Dawley rat at 1 mg/kg, iv
Assay type: ADME, organism-based
Set-up: dose 1 mg/kg, route intravenous
particulars: in vivo
endpoint-name: clearance (mL/min/kg)
Numbers only, in mL/min/kg.

CC(=O)Nc1nc2c(Oc3cc(-c4ccc(C(F)(F)F)cc4)ncn3)cccc2s1 : 3.17

For the compound Nc1nc2c(Oc3cc(-c4ccc(C(F)(F)F)cc4)ncn3)cccc2[nH]c1=O , give its measured clearance value. 3.28

* * *

protocol-details: Volume of distribution at steady state at 1 mg/kg, iv
Assay type: ADME, organism-based
Set-up: dose 1 mg/kg, route intravenous
particulars: rat, in vivo, read-out: Vss
endpoint-name: Vd

For the compound CC(=O)Nc1nc2c(Oc3cc(-c4ccc(C(F)(F)F)cc4)ncn3)cccc2s1 , give its measured Vd value. 4 L/kg

* * *

protocol-details: Bioavailability in monkey at 1 mg/kg, po
Type: ADME, organism-based, Macaca mulatta
particulars: rhesus monkey, in vivo
endpoint-name: bioavailability (%)
Give bare numbers, in %.

For the molecule CC(=O)Nc1nc2c(Oc3cc(-c4ccc(C(F)(F)F)cc4)ncn3)cccc2s1 , give its measured bioavailability value. 52

* * *

protocol-details: Aqueous solubility in hydrochloric acid by high-throughput automated format
Format: physicochemical
endpoint-name: solubility

CC(=O)Nc1nc2c(Oc3cc(-c4ccc(C(F)(F)F)cc4)ncn3)cccc2s1 [AMG-517] : < 1 µg/mL

For the molecule Nc1nc2c(Oc3cc(-c4ccc(C(F)(F)F)cc4)ncn3)cccc2[nH]c1=O , give its measured solubility value. < 1 µg/mL

* * *

protocol-details: Clearance in monkey at 1 mg/kg, iv
Format: ADME, organism-based, Macaca mulatta
Set-up: dose 1 mg/kg, route intravenous
particulars: rhesus monkey, in vivo
endpoint-name: clearance (mL/min/kg)
Numbers only, in mL/min/kg.

For the compound CC(=O)Nc1nc2c(Oc3cc(-c4ccc(C(F)(F)F)cc4)ncn3)cccc2s1 , give its measured clearance value. 0.5

* * *

protocol-details: Half life in dog at 1 mg/kg, iv
Assay type: ADME, organism-based, Canis lupus familiaris
Set-up: dose 1 mg/kg, route intravenous
particulars: in vivo
endpoint-name: half-life (h)
Give bare numbers, in h.

For the molecule CC(=O)Nc1nc2c(Oc3cc(-c4ccc(C(F)(F)F)cc4)ncn3)cccc2s1 , give its measured half-life value. 41

* * *

protocol-details: Bioavailability in rat at 1 mg/kg, po
Format: ADME, organism-based
particulars: in vivo
endpoint-name: bioavailability (%)
Give bare numbers, in %.

For the compound CC(=O)Nc1nc2c(Oc3cc(-c4ccc(C(F)(F)F)cc4)ncn3)cccc2s1 [AMG-517] , give its measured bioavailability value. 51

* * *

protocol-details: AUC (0-infinity) in monkey at 1 mg/kg, iv
Assay type: ADME, organism-based, Macaca mulatta
Parameters: time infinity, dose 1 mg/kg, route intravenous
particulars: rhesus monkey, plasma
endpoint-name: AUC(0-inf) (ng·h/mL)
Give bare numbers, in ng·h/mL.

For the compound CC(=O)Nc1nc2c(Oc3cc(-c4ccc(C(F)(F)F)cc4)ncn3)cccc2s1 [AMG-517] , give its measured AUC(0-inf) value. 37000

* * *

protocol-details: In vivo clearance in Sprague-Dawley rat at 1 mg/kg, iv
Assay type: ADME, organism-based
Parameters: dose 1 mg/kg, route intravenous
Record form. Attribute: clearance. Fill in for each entry.
Answers are plain numbers, in mL/min/kg.

Below: 3 molecules and their reported clearance.
Nc1nc2c(Oc3cc(-c4ccc(C(F)(F)F)cc4)ncn3)cccc2[nH]c1=O : 4.33
Nc1nc2c(Oc3cc(-c4ccc(C(F)(F)F)cc4)ncn3)cccc2s1 : 3.67
CC(=O)Nc1nc2c(Oc3cc(-c4ccc(C(F)(F)F)cc4)ncn3)cccc2s1 : 4.17

Moving on to another molecule below.
For the molecule Nc1cnc2cccc(Oc3cc(-c4ccc(C(F)(F)F)cc4)ncn3)c2n1 , give its measured clearance value. 71.7

* * *

Record form. Attribute: solubility. Fill in for each entry.
protocol-details: Solubility in PBS by high-throughput automated format
Format: physicochemical

CC(=O)Nc1nc2c(Oc3cc(-c4ccc(C(F)(F)F)cc4)ncn3)cccc2s1 [AMG-517] : < 1 µg/mL

Moving on to another compound below.
For the compound Nc1nc2c(Oc3cc(-c4ccc(C(F)(F)F)cc4)ncn3)cccc2[nH]c1=O , give its measured solubility value. < 1 µg/mL
